system: Aspergillus niger; test: Antifungal activity against Aspergillus niger after 48 hr by agar streak dilution method; format: functional
Would you kindly list MIC for each of these molecules?
Could you write the number and then its unit?

Determine from records and report MIC for Cc1cc(=O)oc2cc(Oc3nc(Nc4ccc(/N=C/c5ccc(Cl)c(Cl)c5)cc4)nc(N(C)C)n3)ccc12
100 µg/mL

Given Cc1cc(=O)oc2cc(Oc3nc(Nc4ccc(N5C(=O)CSC5c5ccc(O)cc5)cc4)nc(N(C)C)n3)ccc12 (stereo not given) , respond with its MIC.
12.5 µg/mL

Give the reported value of MIC for this record: Cc1cc(=O)oc2cc(Oc3nc(Nc4ccc(N5C(=O)CSC5c5cccc(F)c5)cc4)nc(N(C)C)n3)ccc12 (stereo not given)
25 µg/mL

Report measured MIC; entry is Cc1cc(=O)oc2cc(Oc3nc(Nc4ccc(N5C(=O)CSC5c5ccc(O)cc5O)cc4)nc(N(C)C)n3)ccc12 (stereo not given)
50 µg/mL

Give reported MIC value for Cc1cc(=O)oc2cc(Oc3nc(Nc4ccc(N5C(=O)C(CN6CCN(c7ccccn7)CC6)SC5c5ccc(F)cc5)cc4)nc(N(C)C)n3)ccc12 (stereo not given)
6.25 µg/mL

Fill in reported MIC for this entry: Cc1cc(=O)oc2cc(Oc3nc(Nc4ccc(/N=C/c5ccc(Cl)cc5)cc4)nc(N(C)C)n3)ccc12
100 µg/mL

Output MIC of Cc1cc(=O)oc2cc(Oc3nc(Nc4ccc(/N=C/c5ccccc5)cc4)nc(N(C)C)n3)ccc12
100 µg/mL

Consider the molecule Cc1cc(=O)oc2cc(Oc3nc(Nc4ccc(N5C(=O)CSC5c5ccc(F)cc5)cc4)nc(N(C)C)n3)ccc12 (stereo not given) and give its recorded MIC.
12.5 µg/mL

Please supply the value of reported MIC for the item Cc1cc(=O)oc2cc(Oc3nc(Nc4ccc(N5C(=O)C(CN6CCN(c7ccccn7)CC6)SC5c5ccc(O)cc5O)cc4)nc(N(C)C)n3)ccc12 (stereo not given)
25 µg/mL

Return MIC (reported value) for this molecule: Cc1cc(=O)oc2cc(Oc3nc(Nc4ccc(N5C(=O)CSC5c5ccc([N+](=O)[O-])cc5)cc4)nc(N(C)C)n3)ccc12 (stereo not given)
100 µg/mL

Read off the recorded MIC for Cc1cc(=O)oc2cc(Oc3nc(Nc4ccc(N5C(=O)C(CN6CCN(c7ccccn7)CC6)SC5c5ccccc5Br)cc4)nc(N(C)C)n3)ccc12 (stereo not given)
25 µg/mL

Dear colleague, please send me the reported MIC for Cc1cc(=O)oc2cc(Oc3nc(Nc4ccc(N5C(=O)C(CN6CCN(c7ccccn7)CC6)SC5c5ccc(Cl)c(Cl)c5)cc4)nc(N(C)C)n3)ccc12 (stereo not given) when you can.
100 µg/mL

Answer with the recorded MIC of Cc1cc(=O)oc2cc(Oc3nc(Nc4ccc(N5C(=O)CSC5c5ccccc5C(=O)O)cc4)nc(N(C)C)n3)ccc12 (stereo not given) only.
100 µg/mL

Identify measured MIC corresponding to COc1ccc(C2SCC(=O)N2c2ccc(Nc3nc(Oc4ccc5c(C)cc(=O)oc5c4)nc(N(C)C)n3)cc2)cc1OC (stereo not given)
100 µg/mL

Note MIC for the molecule shown: Cc1cc(=O)oc2cc(Oc3nc(Nc4ccc(/N=C/c5ccccc5Br)cc4)nc(N(C)C)n3)ccc12
100 µg/mL

###

test system: Aspergillus clavatus; assay: Antifungal activity against Aspergillus clavatus after 48 hr by agar streak dilution method; assay type: functional
assayMetric: MIC (µg/mL)
// units = µg/mL; emit number, no label

Input Cc1cc(=O)oc2cc(Oc3nc(Nc4ccc(N5C(=O)C(CN6CCN(c7ccccn7)CC6)SC5c5ccc(O)cc5O)cc4)nc(N(C)C)n3)ccc12 (centres undefined) , output reported MIC.
12.5

Please give the documented MIC of Cc1cc(=O)oc2cc(Oc3nc(Nc4ccc(N5C(=O)C(CN6CCN(c7ccccn7)CC6)SC5c5ccc(Cl)cc5)cc4)nc(N(C)C)n3)ccc12 (centres undefined)
12.5

Find the measured MIC of Cc1cc(=O)oc2cc(Oc3nc(Nc4ccc(N5C(=O)CSC5c5ccc(Cl)c(Cl)c5)cc4)nc(N(C)C)n3)ccc12 (centres undefined) and report it.
50

Answer with the recorded MIC of Cc1cc(=O)oc2cc(Oc3nc(Nc4ccc(N5C(=O)C(CN6CCN(c7ccccn7)CC6)SC5c5ccccc5)cc4)nc(N(C)C)n3)ccc12 (centres undefined) only.
100

Give me measured MIC, please, for this molecule: Cc1cc(=O)oc2cc(Oc3nc(Nc4ccc(N5C(=O)CSC5c5cccc(F)c5)cc4)nc(N(C)C)n3)ccc12 (centres undefined)
25

Quickly give me recorded MIC for Cc1ccc(C2SCC(=O)N2c2ccc(Nc3nc(Oc4ccc5c(C)cc(=O)oc5c4)nc(N(C)C)n3)cc2)cc1 (centres undefined)
50

Specify MIC for Cc1cc(=O)oc2cc(Oc3nc(Nc4ccc(/N=C/c5ccccc5)cc4)nc(N(C)C)n3)ccc12 and stop.
100

For the molecule Cc1ccc(C2SC(CN3CCN(c4ccccn4)CC3)C(=O)N2c2ccc(Nc3nc(Oc4ccc5c(C)cc(=O)oc5c4)nc(N(C)C)n3)cc2)cc1 (centres undefined) , report MIC.
25

Supply reported MIC belonging to this molecule: COc1ccc(C2SC(CN3CCN(c4ccccn4)CC3)C(=O)N2c2ccc(Nc3nc(Oc4ccc5c(C)cc(=O)oc5c4)nc(N(C)C)n3)cc2)cc1 (centres undefined)
50

Return MIC for the following molecule: Cc1cc(=O)oc2cc(Oc3nc(Nc4ccc(N5C(=O)C(CN6CCN(c7ccccn7)CC6)SC5c5ccc([N+](=O)[O-])cc5)cc4)nc(N(C)C)n3)ccc12 (centres undefined)
50

Tell me its MIC given Cc1cc(=O)oc2cc(Oc3nc(Nc4ccc(N5C(=O)CSC5c5ccc(Cl)cc5)cc4)nc(N(C)C)n3)ccc12 (centres undefined) as the entry.
25

# return recorded MIC for input Cc1cc(=O)oc2cc(Oc3nc(Nc4ccc(N5C(=O)CSC5c5ccc(O)cc5O)cc4)nc(N(C)C)n3)ccc12 (centres undefined)
50

Kindly indicate its recorded MIC. Item: Cc1cc(=O)oc2cc(Oc3nc(Nc4ccc(/N=C/c5ccc(Cl)c(Cl)c5)cc4)nc(N(C)C)n3)ccc12
100

Supply reported MIC belonging to this molecule: COc1ccc(C2SC(CN3CCN(c4ccccn4)CC3)C(=O)N2c2ccc(Nc3nc(Oc4ccc5c(C)cc(=O)oc5c4)nc(N(C)C)n3)cc2)cc1OC (centres undefined)
50

Source of measurements: ChEMBL document CHEMBL3046897
